biological target: furin, P09958; experiment: furin cleavage Z-score vs untreated control; higher = more cleavage, active = 3.5 or more, inactive = 1 or less, 8 variable residues between constant flanks; details: 15 min;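 note: purified furin at 1:10 enzyme:substrate in 50 mM HEPES pH 7.5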
Sequence (P09958 whole entry): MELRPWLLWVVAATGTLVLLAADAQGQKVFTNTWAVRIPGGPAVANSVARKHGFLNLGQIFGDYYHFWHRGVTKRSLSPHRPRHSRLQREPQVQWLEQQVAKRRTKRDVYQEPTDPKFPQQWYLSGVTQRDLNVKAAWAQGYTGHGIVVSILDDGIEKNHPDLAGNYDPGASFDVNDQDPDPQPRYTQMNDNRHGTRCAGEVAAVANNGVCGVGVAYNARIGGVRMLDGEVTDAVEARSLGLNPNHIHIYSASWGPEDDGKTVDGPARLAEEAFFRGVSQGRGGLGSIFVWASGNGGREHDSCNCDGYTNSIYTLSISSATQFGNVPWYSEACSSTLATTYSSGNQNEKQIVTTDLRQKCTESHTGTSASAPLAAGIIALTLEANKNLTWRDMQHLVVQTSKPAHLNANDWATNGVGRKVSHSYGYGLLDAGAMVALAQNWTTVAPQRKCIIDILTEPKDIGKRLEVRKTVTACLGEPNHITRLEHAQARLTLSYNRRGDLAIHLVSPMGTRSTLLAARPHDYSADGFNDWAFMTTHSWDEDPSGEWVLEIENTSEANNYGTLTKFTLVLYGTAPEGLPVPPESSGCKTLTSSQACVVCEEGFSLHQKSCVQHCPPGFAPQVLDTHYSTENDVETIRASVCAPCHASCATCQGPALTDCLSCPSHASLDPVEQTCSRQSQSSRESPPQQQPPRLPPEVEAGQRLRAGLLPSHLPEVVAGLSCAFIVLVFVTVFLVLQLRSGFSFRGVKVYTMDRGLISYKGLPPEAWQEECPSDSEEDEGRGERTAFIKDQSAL
The list shows a part of the results. How many sequences the whole screen found active is unknown.
In this exercise, the only acceptable responses are active, inactive

Lookup: Hey, what did the test say about CAQGYKVLVLAGNASASA [HC784] ?
Found: inactive

Lookup: # iterate: CANWAKVLVVAGNASASA [HC344]
Found: inactive

Lookup: # iterate: CANRERSKRDAGNASASA [FS-182]
Found: active

Lookup: # iterate: CARARRGLRGAGNASASA [FS-1817]
Found: inactive

Lookup: # iterate: CAGGGRSKRDAGNASASA [FS-997]
Found: active

Lookup: # iterate: CARARRGTSGAGNASASA [FS-2646]
Found: active

Lookup: # iterate: CARARRGPSPAGNASASA [FS-2131]
Found: inactive

Lookup: # iterate: CAAELATRSFAGNASASA [HC1333]
Found: inactive

Lookup: # iterate: CAPVVHGCPLAGNASASA [HC1315]
Found: inactive

Lookup: # iterate: CALCSALYVGAGNASASA [HC296]
Found: inactive

Lookup: # iterate: CARARRSASPAGNASASA [FS-2481]
Found: active

Lookup: # iterate: CARPYRCKIKAGNASASA [FS-3032]
Found: inactive

The measured values listed here are drawn from the supplement of paper PMC3545927.
